Data provenance: patent US5874308A

- Assayed system: N1 (CBDN1) (Cellulomonas fimi, UniProt P14090)
- Construct: leader (signal) peptide of C. fimi exoglucanase Cex (N); made in house; host or cells: E. coli JM101 (pTugKN1), purified from culture supernatant
- Sequence (P14090 33-184): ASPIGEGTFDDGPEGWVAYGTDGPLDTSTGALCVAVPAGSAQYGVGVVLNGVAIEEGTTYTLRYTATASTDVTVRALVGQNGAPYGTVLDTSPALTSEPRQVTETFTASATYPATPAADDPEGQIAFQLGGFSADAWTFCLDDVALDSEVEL
- Assay method text: N1 binding constants by NMR
- Run conditions: 35° C.; read-out: NMR Ka (converted)
Examples of compounds with documented Kd follow.
Put your answer as a value accompanied by its unit after it.

# count of solved cases: 2
OC[C@H]1O[C@@H](O[C@H]2[C@H](O)[C@@H](O)[C@H](O[C@H]3[C@H](O)[C@@H](O)[C@H](O[C@H]4[C@H](O)[C@@H](O)[C@H](O[C@H]5[C@H](O)[C@@H](O)[C@H](O[C@H]6[C@H](O)[C@@H](O)C(O)O[C@@H]6CO)O[C@@H]5CO)O[C@@H]4CO)O[C@@H]3CO)O[C@@H]2CO)[C@H](O)[C@@H](O)[C@@H]1O (stereo partly shown); 19.6 µM
OC[C@H]1O[C@@H](O[C@H]2[C@H](O)[C@@H](O)[C@H](O[C@H]3[C@H](O)[C@@H](O)[C@H](O[C@H]4[C@H](O)[C@@H](O)[C@H](O[C@H]5[C@H](O)[C@@H](O)C(O)O[C@@H]5CO)O[C@@H]4CO)O[C@@H]3CO)O[C@@H]2CO)[C@H](O)[C@@H](O)[C@@H]1O (stereo partly shown); 29.4 µM

Assign Kd to the following record: OC[C@H]1O[C@@H](O[C@H]2[C@H](O)[C@@H](O)[C@H](O[C@H]3[C@H](O)[C@@H](O)[C@H](O[C@H]4[C@H](O)[C@@H](O)C(O)O[C@@H]4CO)O[C@@H]3CO)O[C@@H]2CO)[C@H](O)[C@@H](O)[C@@H]1O (stereo partly shown)
238 µM

For the compound OC[C@H]1O[C@@H](O[C@H]2[C@H](O)[C@@H](O)[C@H](O[C@H]3[C@H](O)[C@@H](O)C(O)O[C@@H]3CO)O[C@@H]2CO)[C@H](O)[C@@H](O)[C@@H]1O (stereo partly shown) , report Kd.
5560 µM
